Data credit: PubChem BioAssay (NCI)

Tested on: SK-MEL-28 melanoma
protocol_notes: NCI tumour cell line growth inhibition, 48 h
Measured TGI accompanies every entry in the list below.

Solved cases below.
compound | TGI
CC12CCC(CC1(Cl)Cl)C2 (stereo unspecified) | > 100 µM
COc1ccc2c(c1)O/C(=C\c1cccc(OCC(=O)Nc3nc(C)c(C)s3)c1)C2=O | > 100 µM
Cn1cncc1-c1c(F)cncc1NC(=O)c1c(N)nn2cc(F)cnc12 | 86.8 µM

Q: Field request: TGI | item: "O=C(c1ccco1)N(C(=S)N1CCN(c2ccccn2)CC1)c1ccccc1"
Result: > 100 µM

Q: Next up: "COc1cc(-c2nccc3cc4c(cc23)OCO4)cc(OC)c1OC"
Result: > 100 µM

Q: Try the compound "CCOc1ccc(C(C)=O)cc1NC(=O)c1cccc(-c2nnn(CC)n2)c1"
Result: > 100 µM
